B1: library; a variant is named by its letters at N, in order (parent)
chain: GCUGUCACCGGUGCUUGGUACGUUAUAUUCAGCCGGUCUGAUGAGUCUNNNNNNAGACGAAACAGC

variants of: B1; experiment: FACS-Seq fitted mean relative fluorescence mCherry/BFP with ligand (log10 relative fluorescence); HEK293T overexpressing SLC46A1; ligand concentration (+) FACS-Seq: 6 mM; higher = higher reporter protein expression; conditions: with (6R,S)-folinic acid; ligand present: yes
ATTRIBUTE_MEASURED: FACS-Seq fitted mean (log10)
API note: the answer field is a bare number with no unit suffix.

Example entries begin here.
MUTATION: UAGCAU
FACS-Seq fitted mean (log10): 0.328

MUTATION: GUUGCU
FACS-Seq fitted mean (log10): 0.44

MUTATION: AGCGCA
FACS-Seq fitted mean (log10): 0.548

MUTATION: AUAUAU
FACS-Seq fitted mean (log10): 0.459

MUTATION: CAAACC
FACS-Seq fitted mean (log10): 0.377

MUTATION: GAAAUG
FACS-Seq fitted mean (log10): 0.551

MUTATION: UGGUAA
FACS-Seq fitted mean (log10): 0.0329

MUTATION: UAUCGG
FACS-Seq fitted mean (log10): 0.648

Per the record, `UAUUUC` has FACS-Seq fitted mean (log10) of 0.208

Per the record, `ACAUCC` has FACS-Seq fitted mean (log10) of 0.0523

Per the record, `CUUGGA` has FACS-Seq fitted mean (log10) of 0.547

Per the record, `CAAAAU` has FACS-Seq fitted mean (log10) of -0.505

Per the record, `CGUUGC` has FACS-Seq fitted mean (log10) of 0.358

Per the record, `CACUGA` has FACS-Seq fitted mean (log10) of 0.325

Per the record, `GUAAUC` has FACS-Seq fitted mean (log10) of -0.00665

Entry source: the supplement of paper PMC6757056
